Every entry's value here was drawn from ChEMBL document CHEMBL2169851.

# Target system: High affinity 3',5'-cyclic-AMP phosphodiesterase 7A (Homo sapiens)
# Sequence (Q13946 whole entry): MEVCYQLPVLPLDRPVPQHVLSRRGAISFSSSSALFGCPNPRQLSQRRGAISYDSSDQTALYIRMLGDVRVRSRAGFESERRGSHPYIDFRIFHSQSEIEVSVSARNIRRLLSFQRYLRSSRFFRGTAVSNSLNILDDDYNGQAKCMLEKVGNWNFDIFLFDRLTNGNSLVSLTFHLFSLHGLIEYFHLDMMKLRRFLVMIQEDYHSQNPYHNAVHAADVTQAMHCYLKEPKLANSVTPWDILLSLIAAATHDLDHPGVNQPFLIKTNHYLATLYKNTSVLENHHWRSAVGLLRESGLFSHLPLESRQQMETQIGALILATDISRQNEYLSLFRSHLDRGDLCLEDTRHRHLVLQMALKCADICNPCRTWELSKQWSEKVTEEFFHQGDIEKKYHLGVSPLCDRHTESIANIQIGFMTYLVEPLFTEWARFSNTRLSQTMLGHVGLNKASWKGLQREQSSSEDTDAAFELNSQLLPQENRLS
# Test details: Inhibition of cloned human recombinant PDE7A assessed as [3H]cAMP hydrolysis by radiometric assay
Outcome measure: IC50 (nM)

Record excerpt, results attached:
{"Molecule": "COc1cc(N2CC(N)C2)ccc1-c1nc2c(C)nn(C3CCCCC3)c(=O)c2[nH]1", "IC50 [nM]": 73}
{"Molecule": "COc1cc(N2CC[C@H](N)C2)ccc1-c1nc2c(C)nn(C3CCCCC3)c(=O)c2[nH]1", "IC50 [nM]": 80}
{"Molecule": "COc1cc(-c2n[nH]c(=O)o2)ccc1-c1nc2c(C)nn(C3CCCCC3)c(=O)c2[nH]1", "IC50 [nM]": 68}
{"Molecule": "COc1cc(N2CCC(O)C2)ccc1-c1nc2c(C)nn(C3CCCCC3)c(=O)c2[nH]1 (centres undefined)", "IC50 [nM]": 71}

(a) COc1cc(/C=C/C(N)=O)ccc1-c1nc2c(C)nn(C3CCCCC3)c(=O)c2[nH]1
(b) COc1cc(N2CCC(N)CC2)ccc1-c1nc2c(C)nn(C3CCCCC3)c(=O)c2[nH]1
(c) COc1cc(N2CC(O)C2)ccc1-c1nc2c(C)nn(C3CCCCC3)c(=O)c2[nH]1
(d) COc1cc(N2CCNC(=O)C2)ccc1-c1nc2c(C)nn(C3CCCCC3)c(=O)c2[nH]1
## Task I would appreciate it if you could sort these 4 molecules by IC50, starting from the smallest number. Please express your ranking as an ordered list of the labels.
## Result d, b, c, a
(d: 18 nM, b: 27 nM, c: 53 nM, a: 89 nM)

====

# Test details: AUC in C57 mouse at 10 mg/kg, ip
# Assay type: ADME, organism-based
# Parameters: dose 10 mg/kg, route intraperitoneal
# Study conditions: plasma
Outcome measure: AUC (ng·h/mL)

(1) COc1cc(N2CCCNCC2)ccc1-c1nc2c(C)nn(C3CCCCC3)c(=O)c2[nH]1
(2) COc1cc(N)ccc1-c1nc2c(C)nn(C3CCCCC3)c(=O)c2[nH]1
(3) COc1cc(N2CCC(N)CC2)ccc1-c1nc2c(C)nn(C3CCCCC3)c(=O)c2[nH]1
## Task rank_up(items): orders items by reported AUC in ascending numerical order. Please express your ranking as an ordered list of the labels.
## Result 2, 1, 3

====

# Test details: AUC in C57 mouse at 30 mg/kg, ip
# Assay type: ADME, organism-based
# Parameters: dose 30 mg/kg, route intraperitoneal
# Study conditions: plasma
Outcome measure: AUC (ng·h/mL)
Provide the reading as a plain figure in ng·h/mL.

## Task Would you mind telling me what AUC value was observed for COc1cc(N)ccc1-c1nc2c(C)nn(C3CCCCC3)c(=O)c2[nH]1 ?
## Result 5020

====

# Test details: Ratio of drug level in brain to plasma in C57 mouse at 30 mg/kg, ip after 30 mins
# Format: ADME, organism-based
# Design: dose 30 mg/kg, route intraperitoneal
# Study conditions: read-out: BPR
Outcome measure: Kp at 0.5 h
Provide a numeric answer; units are not to be included.

## Task Would you mind telling me what Kp at 0.5 h value was observed for COc1cc(N)ccc1-c1nc2c(C)nn(C3CCCCC3)c(=O)c2[nH]1 ?
## Result 3.43
